- assayed.target: Alpha-1A adrenergic receptor (Homo sapiens); note: assay procedure not described here
- Sequence (P35348 whole entry): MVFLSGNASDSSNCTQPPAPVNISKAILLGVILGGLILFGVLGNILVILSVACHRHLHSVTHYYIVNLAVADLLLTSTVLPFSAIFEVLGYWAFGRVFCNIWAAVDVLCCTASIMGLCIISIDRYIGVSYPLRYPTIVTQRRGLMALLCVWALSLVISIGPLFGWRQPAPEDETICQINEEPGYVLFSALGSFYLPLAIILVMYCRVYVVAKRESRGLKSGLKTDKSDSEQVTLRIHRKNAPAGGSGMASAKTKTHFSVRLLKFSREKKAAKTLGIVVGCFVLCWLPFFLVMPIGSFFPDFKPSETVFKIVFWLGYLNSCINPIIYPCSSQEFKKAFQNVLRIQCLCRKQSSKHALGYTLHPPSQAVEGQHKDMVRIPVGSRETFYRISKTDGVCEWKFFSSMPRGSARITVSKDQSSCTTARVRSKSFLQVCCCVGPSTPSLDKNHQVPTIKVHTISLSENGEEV
- Type: functional, cell-based
Can you tell me AC50 for the items I'm about to list?

Return the recorded AC50 value; entry: OCCOCCN1CCN(C(c2ccccc2)c2ccc(Cl)cc2)CC1 (stereo not drawn) [HYDROXYZINE]
9.67 µM

Supply recorded AC50 for CCCCCCCC(=O)CC[C@@H]1[C@@H](C/C=C\CCCC(=O)O)[C@@H](O)C[C@H]1O [UNOPROSTONE] here.
> 30 µM

Supply measured AC50 of O=C(O)COC(=O)Cc1ccccc1Nc1c(Cl)cccc1Cl [ACECLOFENAC] in your reply.
> 30 µM

Supply AC50 value. Item: Cc1cn(-c2cc(NC(=O)c3ccc(C)c(Nc4nccc(-c5cnccn5)n4)c3)cc(C(F)(F)F)c2)cn1 [RADOTINIB]
> 30 µM

Identify AC50 associated with the compound OCCN(CCO)c1nc(N2CCCCC2)c2nc(N(CCO)CCO)nc(N3CCCCC3)c2n1 [DIPYRIDAMOLE]
> 30 µM

Answer with the recorded AC50 for the compound listed here: C[C@]12CCC(=O)C=C1[C@@H]1C[C@@H]1[C@H]1[C@@H]3[C@@H]4C[C@@H]4[C@@]4(CCC(=O)O4)[C@@]3(C)CC[C@@H]12 [DROSPIRENONE]
> 30 µM

Complete the entry with AC50 for CC(C)(C)NCC(O)COc1cccc2c1CC(O)C(O)C2 (stereo not drawn) [NADOLOL]
7.7 µM

Please indicate AC50 recorded for C[C@H](CS)C(=O)N1CCC[C@H]1C(=O)O [CAPTOPRIL]
> 30 µM
